5-hydroxytryptamine receptor 7 (Homo sapiens, UniProt P34969): reported pKi for various compounds.
Sequence (P34969 whole entry): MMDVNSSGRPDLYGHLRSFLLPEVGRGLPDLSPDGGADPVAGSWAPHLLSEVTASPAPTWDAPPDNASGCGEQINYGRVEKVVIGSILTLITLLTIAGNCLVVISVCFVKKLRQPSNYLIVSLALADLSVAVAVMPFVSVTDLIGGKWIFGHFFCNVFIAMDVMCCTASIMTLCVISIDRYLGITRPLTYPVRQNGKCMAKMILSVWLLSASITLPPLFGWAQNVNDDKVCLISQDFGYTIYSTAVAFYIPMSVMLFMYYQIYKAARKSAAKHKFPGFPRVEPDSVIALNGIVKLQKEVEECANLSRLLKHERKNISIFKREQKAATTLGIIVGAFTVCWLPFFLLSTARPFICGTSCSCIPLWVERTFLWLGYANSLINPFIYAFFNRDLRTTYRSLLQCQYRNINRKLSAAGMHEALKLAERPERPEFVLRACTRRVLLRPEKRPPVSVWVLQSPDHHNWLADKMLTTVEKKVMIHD
Scale explanation: pKi corresponds to minus log10 of a concentration expressed in moles per litre.

*Q* Jot down pKi (5-hydroxytryptamine receptor 7 (Homo sapiens, UniProt P34969)) of O=S(=O)(NC1CCN(CCOc2ccccc2)C1)c1ccc(F)cc1 (stereo not given) .
*A* 8.05

*Q* Jot down pKi (5-hydroxytryptamine receptor 7 (Homo sapiens, UniProt P34969)) of CSc1ccccc1OCCN1CCC(NS(=O)(=O)c2ccc(F)cc2)C1 (stereo not given) .
*A* 7.96

Further cases:
*Q* Jot down pKi (5-hydroxytryptamine receptor 7 (Homo sapiens, UniProt P34969)) of O=C(NCC1CCN(CCOc2cc(Cl)ccc2Cl)CC1)c1cccc(F)c1 .
*A* 6.38

*Q* Jot down pKi (5-hydroxytryptamine receptor 7 (Homo sapiens, UniProt P34969)) of O=C(NCC1CCN(CCOc2ccccc2-c2ccccc2)CC1)c1ccc2ccccc2n1 .
*A* 6.48

*Q* Jot down pKi (5-hydroxytryptamine receptor 7 (Homo sapiens, UniProt P34969)) of CCOc1ccccc1C(=O)NC1CCN(CCSc2ccccc2-c2ccccc2)CC1 .
*A* 6.48

*Q* Jot down pKi (5-hydroxytryptamine receptor 7 (Homo sapiens, UniProt P34969)) of O=S(=O)(NC1CCN(CCOc2cccc3c2CCCC3)C1)c1cc(F)ccc1F (stereo not given) .
*A* 7.80

* * *

target: UniProtKB P50406
Sequence (P50406 whole entry): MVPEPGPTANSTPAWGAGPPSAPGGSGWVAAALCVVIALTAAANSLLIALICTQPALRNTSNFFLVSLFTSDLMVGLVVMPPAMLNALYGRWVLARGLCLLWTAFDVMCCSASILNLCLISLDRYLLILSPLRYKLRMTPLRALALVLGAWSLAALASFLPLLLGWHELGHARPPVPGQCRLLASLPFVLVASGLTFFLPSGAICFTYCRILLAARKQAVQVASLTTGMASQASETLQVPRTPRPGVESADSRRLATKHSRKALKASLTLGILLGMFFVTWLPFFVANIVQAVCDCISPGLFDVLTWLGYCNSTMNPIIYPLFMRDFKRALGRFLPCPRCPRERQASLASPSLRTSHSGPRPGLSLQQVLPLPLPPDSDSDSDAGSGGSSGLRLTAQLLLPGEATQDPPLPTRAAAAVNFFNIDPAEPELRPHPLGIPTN
Metric Name: pKi
Scale explanation: pKi corresponds to minus log10 of a concentration expressed in moles per litre.

*Q* Jot down pKi (UniProtKB P50406) of CC(C)c1ccccc1OCCN1CCC(NS(=O)(=O)c2cccc3cccnc23)C1 (stereo not given) .
*A* 6.30

*Q* Jot down pKi (UniProtKB P50406) of CC(C)c1ccccc1OCCN1CCC(CNS(=O)(=O)c2ccc(F)cc2)CC1 .
*A* 6.50

*Q* Jot down pKi (UniProtKB P50406) of O=S(=O)(NCC1CCN(CCOc2cccc(F)c2)CC1)c1cccc(Cl)c1 .
*A* 6.08

*Q* Jot down pKi (UniProtKB P50406) of O=S(=O)(NC1CCN(CCOc2ccccc2-c2ccccc2)C1)c1ccc(F)c(F)c1 (stereo not given) .
*A* 6.49

*Q* Jot down pKi (UniProtKB P50406) of O=S(=O)(NC1CCN(CCOc2ccccc2-c2ccccc2)C1)c1cccs1 (stereo not given) .
*A* 6.57

*Q* Jot down pKi (UniProtKB P50406) of O=S(=O)(NCC1CCN(CCOc2ccccc2-c2ccccc2)CC1)c1ccc(F)cc1 .
*A* 6.50

*Q* Jot down pKi (UniProtKB P50406) of CC(C)c1ccccc1OCCN1CCC(NS(=O)(=O)c2ccc(F)cc2)CC1 .
*A* 6.62

*Q* Jot down pKi (UniProtKB P50406) of CCOc1ccccc1C(=O)NC1CCN(CCOc2cccc(F)c2)CC1 .
*A* 5.42

Further cases:
*Q* Jot down pKi (UniProtKB P50406) of CSc1ccccc1OCCN1CCC(NS(=O)(=O)c2ccc(F)cc2)C1 (stereo not given) .
*A* 6.45

*Q* Jot down pKi (UniProtKB P50406) of O=S(=O)(NC1CCN(CCOc2ccccc2)C1)c1ccc(Cl)s1 (stereo not given) .
*A* 6.02
